Target: IL-17A/A (Homo sapiens, UniProt Q16552)
Construct: purchased Genscript Z03228
Sequence (Q16552 24-155): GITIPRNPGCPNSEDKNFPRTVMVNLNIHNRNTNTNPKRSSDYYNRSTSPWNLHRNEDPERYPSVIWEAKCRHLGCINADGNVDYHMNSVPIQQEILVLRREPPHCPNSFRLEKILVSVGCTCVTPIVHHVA
Assay: IL-17A/A HEK-Blue Cell Assay
Type: cell-based
Settings: HEK-Blue IL-17A reporter cell line, SEAP readout at A630, 20 hours incubation with IL-17A/A; top concentration 10 uM, 1 uM or 0.3 uM; read-out: IL-17A/A inhibition (pIC50) (converted)
observation.type: IC50

{"compound": "CCC(=O)N[C@@H](C(=O)N1CCN(Cc2ccccn2)CC1)[C@@H](C)c1ccc(NC(=O)[C@@H](NC(=O)c2nonc2CC)[C@H]2CC[C@H](C)CC2)c(F)c1", "observation.type": "IC50", "measured": "< 10 nM"}
{"compound": "CCC(=O)N[C@@H](C(=O)N1CCN(C)CC1)[C@@H](C)c1ccc(NC(=O)[C@@H](NC(=O)c2nonc2CC)C2CCCCCC2)c(F)c1", "observation.type": "IC50", "measured": "< 10 nM"}
{"compound": "CCn1nccc1C(=O)N[C@H](C(=O)Nc1ccc([C@H](C)[C@@H](NC(=O)c2cn[nH]c2)C(=O)N2CCN(C)CC2)cc1F)C1CCCCC1", "observation.type": "IC50", "measured": "100 to 10000 nM"}
{"compound": "CCC(=O)N[C@@H](C(=O)N1CCN(C)CC1)[C@@H](C)c1ccc(NC(=O)C(NC(=O)c2nonc2CC)C(CC)c2ccc(Cl)cc2)c(F)c1 (single isomer, unassigned) [Compound 565]", "observation.type": "IC50", "measured": "< 10 nM"}
{"compound": "CC1CCC(C(NC(=O)C(F)(F)c2cccc(C#N)c2)C(=O)Nc2ccc(C(C)C(NC(=O)c3cnns3)C(=O)N3CCN(C)CC3)cc2F)CC1 (stereo not shown)", "observation.type": "IC50", "measured": "< 10 nM"}

# per-item lookup of IC50; items listed below
1. CCC(=O)N[C@@H](C(=O)N1CCN(C)CC1)[C@@H](C)c1ccc(NC(=O)C(NC(=O)C(F)(F)c2cccc(C#N)c2)C2CCCC2)c(F)c1 (stereo partly shown)
2. CCC(=O)N[C@@H](C(=O)N1CCN(C)CC1)[C@@H](C)c1ccc(NC(=O)C(NC(=O)c2ccnn2CC)C2CCc3cc(F)cc(F)c32)c(F)c1 (single isomer, unassigned)
3. CCn1nccc1C(=O)N[C@H](C(=O)Nc1ccc([C@H](C)[C@@H](NC(=O)NC2CCC2)C(=O)N2CCN(C)CC2)cc1F)C1CCCCC1
4. CCC(=O)N[C@@H](C(=O)N1CCN(CC)[C@@H](C)C1)[C@@H](C)c1ccc(NC(=O)[C@@H](NC(=O)c2nonc2CC)[C@H]2CC[C@H](C)CC2)c(F)c1
5. CCC(=O)N[C@H](Cc1ccc(NC(=O)[C@@H](NC(=O)C(F)(F)c2cccc(OC)c2)C2CCCCC2)c(F)c1)C(=O)N1CCN(C)CC1

10 to 100 nM
< 10 nM
100 to 10000 nM
< 10 nM
100 to 10000 nM

====

Molecular target: IL-17A/A (Homo sapiens)
Construct: purchased Genscript Z03228
Assay: IL-17A/A HEK-Blue Cell Assay
Format: cell-based
Conditions: HEK-Blue IL-17A reporter cell line, SEAP readout at A630, 20 hours incubation with IL-17A/A; top concentration 10 uM, 1 uM or 0.3 uM; read-out: IL-17A/A inhibition (pIC50) (converted)
Description: The HEK-Blue IL-17A reporter cell line (Fisher #NC1408637) was used for cell-based IL-17A/A inhibition assays. Cells were grown and prepared for assays according to the manufacturer's instructions. […] Media from the cells is then added to a development reagent (Quanti-Blue Substrate, Fisher #NC9711613), and read at A630. […]
observation.type: IC50

{"given.smiles": "CCC(=O)N[C@@H](C(=O)N1CCN(C)CC1)[C@@H](C)c1ccc(NC(=O)[C@@H](NC(=O)C(F)(F)c2ccc(OC)nc2)C2CCCCC2)cc1", "assay.target": "IL-17A/A (Homo sapiens)", "observation.type": "IC50", "measured": "10 to 100 nM"}

Would you mind giving IC50 for every compound in the list below?
1. COc1nonc1C(=O)N[C@H](C(=O)Nc1ccc([C@H](C)[C@@H](NC(=O)c2cnns2)C(=O)N2CCN(C)CC2)cc1F)[C@H]1CC[C@H](C)CC1
2. CCC(=O)N[C@@H](C(=O)N1CCC(C)(O)CC1)[C@@H](C)c1ccc(NC(=O)[C@@H](NC(=O)c2ccnn2C(C)C)[C@H]2CC[C@H](C)CC2)c(F)c1
3. COc1cncc(C(F)(F)C(=O)N[C@H](C(=O)Nc2ccc([C@H](C)[C@@H](NC(=O)c3cnns3)C(=O)N3CCN(C)CC3)cc2F)[C@H]2CC[C@H](C)CC2)c1

["10 to 100 nM", "10 to 100 nM", "< 10 nM"]

IC50 value, target or system IL-17A/A (Homo sapiens), for CCC(=O)N[C@@H](C(=O)N1CCN(C)CC1)[C@@H](CC)c1ccc(NC(=O)[C@@H](NC(=O)c2ccnn2CC)C2CCCCC2)cc1 : 100 to 10000 nM

====

Target: IL-17A/A (Homo sapiens)
Construct: purchased Genscript Z03228
Sequence (Q16552 24-155): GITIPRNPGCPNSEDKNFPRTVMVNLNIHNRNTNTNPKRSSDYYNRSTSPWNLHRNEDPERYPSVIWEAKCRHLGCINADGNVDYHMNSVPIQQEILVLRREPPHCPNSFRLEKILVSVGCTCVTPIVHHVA
Test: IL-17A/A HEK-Blue Cell Assay
Format: cell-based
Details: HEK-Blue IL-17A reporter cell line, SEAP readout at A630, 20 hours incubation with IL-17A/A; top concentration 10 uM, 1 uM or 0.3 uM; read-out: IL-17A/A inhibition (pIC50) (converted)
Please respond with reported IC50 for every item in the list.

Previously resolved entries follow.
{"compound": "CCn1nccc1C(=O)N[C@H](C(=O)Nc1ccc([C@H](C)[C@@H](NC(=O)COC)C(=O)N2CCN(C)CC2)cc1F)[C@H]1CC[C@H](C)CC1", "assay.target": "IL-17A/A (Homo sapiens)", "IC50": "10 to 100 nM"}
{"compound": "CCn1nccc1C(=O)N[C@H](C(=O)Nc1ccc([C@H](C)[C@@H](NC(=O)c2cnc(C)n2C)C(=O)N2CCN(C)CC2)cc1F)C1CCCCC1", "assay.target": "IL-17A/A (Homo sapiens)", "IC50": "100 to 10000 nM"}
{"compound": "CCC(=O)N[C@@H](C(=O)N1CCN(C)CC1)[C@@H](C)c1ccc(NC(=O)[C@@H](NC(=O)C(F)(F)c2ccc(OC)nc2)C2CCC(F)(F)CC2)c(F)c1", "assay.target": "IL-17A/A (Homo sapiens)", "IC50": "10 to 100 nM"}

Hi there! I need IC50 for each item below, if you can.
1. [2H]C([2H])([2H])C1CCC(C(NC(=O)c2nonc2CC)C(=O)Nc2ccc([C@H](C)[C@@H](NC(=O)N(C)C3CC3)C(=O)N3CCN(C)[C@H](C)C3)cc2F)CC1 (single isomer, unassigned)
2. CCC(=O)N[C@@H](C(=O)N1CCN(C)CC1)[C@@H](C)c1ccc(NC(=O)[C@@H](NC(=O)c2ccnn2CC)[C@H](C)[C@H]2CC[C@H](C)CC2)c(F)c1
3. CCc1nonc1C(=O)N[C@H](C(=O)Nc1ccc([C@H](C)[C@@H](NC(=O)[C@@H](C)F)C(=O)N2CCN(C)CC2)cc1F)[C@H]1CC[C@H](C)CC1
4. CCC(=O)N[C@@H](C(=O)N1CCN(C)CC1)[C@@H](C)c1ccc(NC(=O)[C@@H](NC(=O)c2ccnn2CC)C2CCCCC2)cc1

1: < 10 nM; 2: 10 to 100 nM; 3: < 10 nM; 4: 100 to 10000 nM

Quick one: give me IC50 for each item below, same order please.
1. CCC(=O)N[C@H](Cc1ccc(NC(=O)[C@@H](NC(=O)c2ccnn2CC)[C@@H](C)c2ccccc2)c(F)c1)C(=O)N1CCN(C)CC1
2. CCC(=O)N[C@@H](C(=O)NCC1CCC1)[C@@H](C)c1ccc(NC(=O)[C@@H](NC(=O)c2ccnn2CC)C2CCCCCC2)c(F)c1

100 to 10000 nM
< 10 nM

// batch mode: one IC50 value per listed entry
1. CCn1nccc1C(=O)N[C@H](C(=O)Nc1ccc([C@H](C)[C@@H](NC(=O)c2csc(N)n2)C(=O)N2CCN(C)CC2)cc1F)C1CCCCC1
2. C[C@@H](c1ccc(NC(=O)[C@@H](NC(=O)C(F)(F)c2cccc(C#N)c2)C2CCCCCC2)c(F)c1)[C@@H](O)C(=O)N1CCN(C)CC1

1. 100 to 10000 nM
2. 10 to 100 nM
